Give measured inhibition of growth at 10 µM for each item. Keep answers brief.
Test system: NCI-H522
Assay: Cytotoxicity against human NCI-H522 cells at 10 uM after 48 hrs by SRB assay
Format: functional
Settings: NCI-H522, 48 h, read-out: GI
Value expressed in %; do not type the unit.

Ask: Look up inhibition of growth at 10 µM for this compound: Cc1nc2cc(Nc3nc(Nc4ccc(F)cc4)nc(Nc4ccc(F)cc4)n3)ccc2n1Cc1ccccc1
Reply: 14.2

Ask: Give the measured inhibition of growth at 10 µM of Cc1nc2ccc(Nc3nc(Cl)nc(Nc4ccc(F)cc4)n3)cc2n1Cc1ccccc1 .
Reply: 77.5

Ask: Recorded inhibition of growth at 10 µM of Cc1nc2ccc(Nc3nc(NCCN4CCOCC4)nc(Nc4ccc(F)cc4)n3)cc2n1Cc1ccccc1 , please.
Reply: 41.3

Ask: Would you mind telling me what inhibition of growth at 10 µM value was observed for Cc1nc2cc(Nc3nc(Nc4ccc(F)cc4)nc(-c4ccccc4)n3)ccc2n1Cc1ccccc1 ?
Reply: 24.1

Ask: # query: inhibition of growth at 10 µM of entry Cc1nc2cc(Nc3nc(Nc4ccc(O)cc4)nc(Nc4ccc(F)cc4)n3)ccc2n1Cc1ccccc1
Reply: 15.1

Ask: Could you share which inhibition of growth at 10 µM value was measured for Cc1nc2cc(Nc3nc(NCCN)nc(Nc4ccc(F)cc4)n3)ccc2n1Cc1ccccc1 ?
Reply: 14.1

Ask: So what's the measured inhibition of growth at 10 µM for this one? Cc1nc2cc(Nc3nc(NCCO)nc(Nc4ccc(F)cc4)n3)ccc2n1Cc1ccccc1
Reply: 14.3

Ask: I am curious: what inhibition of growth at 10 µM value has been reported for Cc1nc2ccc(Nc3nc(NCCO)nc(Nc4ccc(F)cc4)n3)cc2n1Cc1ccccc1 ?
Reply: 20.4

Ask: Looking for the measured inhibition of growth at 10 µM of Cc1nc2cc(Nc3nc(Nc4ccc(F)cc4)nc(-c4ccc(Cl)cc4)n3)ccc2n1Cc1ccccc1 , can you help?
Reply: 17.2

Ask: Query (compound): Cc1nc2ccc(Nc3nc(NCCN)nc(Nc4ccc(F)cc4)n3)cc2n1Cc1ccccc1 ; field requested: inhibition of growth at 10 µM
Reply: 31

Ask: Would you mind telling me what inhibition of growth at 10 µM value was observed for Cc1nc2ccc(Nc3nc(Nc4ccc(F)cc4)nc(N4CCCCC4)n3)cc2n1Cc1ccccc1 ?
Reply: 30.1

Ask: So what's the measured inhibition of growth at 10 µM for this one? Cc1nc2cc(Nc3nc(Nc4ccc(F)cc4)nc(-c4cccs4)n3)ccc2n1Cc1ccccc1
Reply: 46.5

Ask: So what's the measured inhibition of growth at 10 µM for this one? Cc1nc2cc(Nc3nc(Nc4ccc(F)cc4)nc(Nc4ncccn4)n3)ccc2n1Cc1ccccc1
Reply: 22.5

Ask: Report inhibition of growth at 10 µM for COc1ccc(-c2nc(Nc3ccc(F)cc3)nc(Nc3ccc4c(c3)nc(C)n4Cc3ccccc3)n2)cc1 please.
Reply: 44.6

###

Tested on: DU-145
Assay: Cytotoxicity against human DU145 cells at 10 uM after 48 hrs by SRB assay
Type: functional
Active and inactive are the calls of the source. The calls are words filed in the database; no cut-off is given here.
Choose the fitting class; nothing outside T for active, F for inactive is accepted.

Ask: Could you kindly confirm the outcome this assay logged for Cc1nc2cc(Nc3nc(Nc4ccc(F)cc4)nc(Nc4ccc(F)cc4)n3)ccc2n1Cc1ccccc1 ?
Reply: F

Ask: Can you look up the reported call for Cc1nc2ccc(Nc3nc(Nc4ccc(F)cc4)nc(N4CCCCC4)n3)cc2n1Cc1ccccc1 for me?
Reply: F

Ask: I would be grateful if you could indicate the recorded call for Cc1nc2cc(Nc3nc(Nc4ccc(F)cc4)nc(N4CCCC4)n3)ccc2n1Cc1ccccc1 .
Reply: T

Ask: Hi team, can someone confirm the assay call for Cc1nc2ccc(Nc3nc(NCCO)nc(Nc4ccc(F)cc4)n3)cc2n1Cc1ccccc1 ?
Reply: F

###

Assay: Cytotoxicity against human OVCAR4 cells at 10 uM after 48 hrs by SRB assay
Type: functional
Details: OVCAR-4, 48 h, read-out: GI
Decision: inhibition of growth at 10 µM >= 40% yields Satisfied, all other cases yield Not satisfied.

Ask: Could you please find out whether Cc1nc2cc(Nc3nc(Nc4ccc(F)cc4)nc(Nc4ncccn4)n3)ccc2n1Cc1ccccc1 has inhibition of growth at 10 µM that meets 40% or exceeds it?
Reply: Not satisfied

Ask: Could you please find out whether Cc1nc2cc(Nc3nc(Nc4ccc(F)cc4)nc(-c4ccc(Cl)cc4)n3)ccc2n1Cc1ccccc1 has inhibition of growth at 10 µM that meets 40% or exceeds it?
Reply: Satisfied

Ask: Reported inhibition of growth at 10 µM reaches at least 40% for Cc1nc2cc(Nc3nc(NCCO)nc(Nc4ccc(F)cc4)n3)ccc2n1Cc1ccccc1 ?
Reply: Not satisfied

Ask: Answer whether inhibition of growth at 10 µM of Cc1nc2cc(Nc3nc(Nc4ccc(O)cc4)nc(Nc4ccc(F)cc4)n3)ccc2n1Cc1ccccc1 is greater than or equal to 40%.
Reply: Not satisfied

Ask: Assess whether reported inhibition of growth at 10 µM for Cc1nc2cc(Nc3nc(Nc4ccc(F)cc4)nc(N4CCCC4)n3)ccc2n1Cc1ccccc1 sits at 40% or higher.
Reply: Satisfied

Ask: Assess whether reported inhibition of growth at 10 µM for Cc1nc2cc(Nc3nc(Nc4ccc(F)cc4)nc(-c4cccs4)n3)ccc2n1Cc1ccccc1 sits at 40% or higher.
Reply: Satisfied

Ask: Reported inhibition of growth at 10 µM at or above 40%? Cc1nc2cc(Nc3nc(NCCN)nc(Nc4ccc(F)cc4)n3)ccc2n1Cc1ccccc1
Reply: Not satisfied

Ask: Answer whether inhibition of growth at 10 µM of Cc1nc2cc(Nc3nc(Nc4ccc(F)cc4)nc(Nc4ccc(F)cc4)n3)ccc2n1Cc1ccccc1 is greater than or equal to 40%.
Reply: Not satisfied

Ask: Check the entry COc1ccc(-c2nc(Nc3ccc(F)cc3)nc(Nc3ccc4c(c3)nc(C)n4Cc3ccccc3)n2)cc1 : does inhibition of growth at 10 µM equal or exceed 40%?
Reply: Satisfied

Ask: Quick check, inhibition of growth at 10 µM >= 40%? Cc1nc2ccc(Nc3nc(NCCN4CCOCC4)nc(Nc4ccc(F)cc4)n3)cc2n1Cc1ccccc1
Reply: Not satisfied

Ask: Can Cc1nc2cc(Nc3nc(Cl)nc(Nc4ccc(F)cc4)n3)ccc2n1Cc1ccccc1 be said to have inhibition of growth at 10 µM at or above 40%?
Reply: Not satisfied

###

Tested on: TK-10
Assay: Cytotoxicity against human TK10 cells at 10 uM after 48 hrs by SRB assay
Type: functional
The source made the active and inactive calls. The calls are words filed in the database; no cut-off is given here.
Please answer using one outcome listed in T for active, F for inactive

Ask: Please indicate how the test categorized Cc1nc2ccc(Nc3nc(NCCO)nc(Nc4ccc(F)cc4)n3)cc2n1Cc1ccccc1 .
Reply: F

Ask: Fill in: this test's call for Cc1nc2cc(Nc3nc(Nc4ccc(F)cc4)nc(N4CCN(C)CC4)n3)ccc2n1Cc1ccccc1 is ___
Reply: T

Ask: Lab log entry: Cc1nc2cc(Nc3nc(Nc4ccc(F)cc4)nc(Nc4ccc(F)cc4)n3)ccc2n1Cc1ccccc1 — outcome as called in the assay?
Reply: F

Ask: Could you kindly confirm the outcome this assay logged for Cc1nc2cc(Nc3nc(NCCN)nc(Nc4ccc(F)cc4)n3)ccc2n1Cc1ccccc1 ?
Reply: F

###

Assay: Cytotoxicity against human MOLT4 cells at 10 uM after 48 hrs by SRB assay
Assay type: functional
Conditions: MOLT-4, 48 h, read-out: GI
Tick Satisfied if inhibition of growth at 10 µM is 40% or greater. Tick Not satisfied if inhibition of growth at 10 µM is less than 40%.

Ask: Item Cc1nc2cc(Nc3nc(Nc4ccc(F)cc4)nc(-c4cccs4)n3)ccc2n1Cc1ccccc1 with inhibition of growth at 10 µM of 40% or above?
Reply: Satisfied

Ask: # bool: inhibition of growth at 10 µM of Cc1nc2ccc(Nc3nc(Nc4ccc(F)cc4)nc(N4CCCCC4)n3)cc2n1Cc1ccccc1 >= 40%
Reply: Not satisfied

Ask: # bool: inhibition of growth at 10 µM of Cc1nc2cc(Nc3nc(Nc4ccc(F)cc4)nc(Nc4ccc(F)cc4)n3)ccc2n1Cc1ccccc1 >= 40%
Reply: Not satisfied

Ask: Item Cc1nc2cc(Nc3nc(Nc4ccc(F)cc4)nc(Nc4ncccn4)n3)ccc2n1Cc1ccccc1 with inhibition of growth at 10 µM of 40% or above?
Reply: Satisfied

Ask: Reported inhibition of growth at 10 µM reaches at least 40% for Cc1nc2cc(Nc3nc(Nc4ccc(F)cc4)nc(N4CCN(C)CC4)n3)ccc2n1Cc1ccccc1 ?
Reply: Satisfied

Ask: Check if inhibition of growth at 10 µM >= 40% (inclusive). Item: Cc1nc2ccc(Nc3nc(NCCO)nc(Nc4ccc(F)cc4)n3)cc2n1Cc1ccccc1
Reply: Not satisfied

Ask: API: above_or_equal(metric=inhibition of growth at 10 µM, cutoff=40%) for item Cc1nc2cc(Nc3nc(Nc4ccc(F)cc4)nc(-c4ccccc4)n3)ccc2n1Cc1ccccc1
Reply: Satisfied

Ask: Given Cc1nc2cc(Nc3nc(Nc4ccc(F)cc4)nc(-c4ccc(Cl)cc4)n3)ccc2n1Cc1ccccc1 , state whether its inhibition of growth at 10 µM is at least 40%.
Reply: Satisfied

Ask: Given the entry Cc1nc2cc(Nc3nc(Nc4ccc(O)cc4)nc(Nc4ccc(F)cc4)n3)ccc2n1Cc1ccccc1 , answer whether its inhibition of growth at 10 µM meets or surpasses 40%.
Reply: Not satisfied

Ask: Does the reported inhibition of growth at 10 µM for Cc1nc2ccc(Nc3nc(NCCN4CCOCC4)nc(Nc4ccc(F)cc4)n3)cc2n1Cc1ccccc1 fall at or above the 40% mark?
Reply: Satisfied

Ask: Determine whether this compound has inhibition of growth at 10 µM no lower than 40%: Cc1nc2cc(Nc3nc(Cl)nc(Nc4ccc(F)cc4)n3)ccc2n1Cc1ccccc1
Reply: Not satisfied
